Test system: NOMO1
Assay: cell viability relative to DMSO control; higher = less cytotoxic
Conditions: RPMI 5 mM glucose + 10% dialyzed FBS; 48 h; 0.19 µM
measuredQuantity: cell viability (%)
Answers are plain numbers, in %.

Here is how some molecules turned out for cell viability.
molecule=CC(=O)OCC(=O)[C@@]12\N=C(C)/O[C@@H]1C[C@H]3[C@@H]4CCC/5=C/C(=O)/C=C\[C@]5(C)[C@H]4[C@@H](O)C[C@]23C displayunit=% testresult=117
molecule=OC[C@H](Cc1ccccc1)Nc1nc(Oc2ccc3c(c2)CCC3)nc2c1ncn2Cc1ccc(-c2ccccc2)cc1 displayunit=% testresult=101
molecule=OC[C@H]1O[C@H]([C@@H](F)[C@@H]1O)N2\C=C/C(=O)NC2=O displayunit=% testresult=99.4
molecule=COC[C@@H](NC(C)=O)C(=O)NCc1ccccc1 displayunit=% testresult=115

Below are 2 molecules. Give each one its cell viability.
1. C=CC1=C(C(=O)O)N2C(=O)[C@@H](NC(=O)/C(=N\O)c3csc(N)n3)[C@H]2SC1
2. CCOc1cc(N)c(Cl)cc1C(=O)NCC1CN(Cc2ccc(F)cc2)CCO1 (stereo not given)

1: 125; 2: 111

Below are 2 molecules. Give each one its cell viability.
1. CNC1[C@@H](O)C(O[C@@H]2C(O)C(O[C@H]3O[C@H]([C@@H](C)NC)CC[C@H]3N)[C@@H](N)C[C@H]2N)OC[C@]1(C)O (stereo not given in full)
2. CC(=O)O[C@@]1(CC[C@H]2[C@@H]3\C=C(C)/C4=C/C(=O)CC[C@]4(C)[C@H]3CC[C@]12C)C(C)=O

1: 87.7; 2: 112

Below are 5 molecules. Give each one its cell viability.
1. O=C1\C=C/C[C@@H]2[C@H]3CCCN4CCC[C@@H](CN12)[C@@H]34
2. Oc1ccc(/C=C/c2cc(O)cc(O)c2)cc1
3. O=C(O)c1ccc(-n2nc(-c3ccccc3O)nc2-c2ccccc2O)cc1
4. COc1cc2c(Oc3ccc(NC(=O)C4(C(=O)Nc5ccc(F)cc5)CC4)cc3F)ccnc2cc1OCCCN1CCOCC1
5. C[S+](=O)([O-])N(Cc1ccco1)CC(O)Cn1c2ccccc2c2ccccc21 (stereo not given)

[104, 105, 88.4, 72.1, 90.1]

Below are 7 molecules. Give each one its cell viability.
1. O=C(NC[C@H](O)CN1CCc2ccccc2C1)c1cc(NC2COC2)ncn1
2. CCNC(=O)c1cc2c(-c3cc(OCCN4CCCC4)c(Cl)cc3Cl)nc(N)nc2s1
3. C[C@@]12O[C@@H](C[C@]1(O)CO)n1c3ccccc3c3c4c(c5c6ccccc6n2c5c31)CNC4=O
4. O=C1C[C@@H](c2ccc(O)cc2)Oc2cc(O)cc(O)c21
5. Oc1ccc(C2CCN(c3ccnc4ccccc34)CC2)cc1O
6. CCOC(=O)N1CCN(/[N+]([O-])=N/Oc2ccc([N+](=O)[O-])cc2[N+](=O)[O-])CC1
7. CCN(CC)CCCCNc1nc2cc(Cl)c(Cl)cc2nc1-c1ccc(-c2cccs2)s1

1: 91.8; 2: 107; 3: 99.6; 4: 110; 5: 96.4; 6: 96.6; 7: 119

###

Assign cell viability to each entry below.
Tested on: SEM cells
Assay: cell viability relative to DMSO control; higher = less cytotoxic
Conditions: HPLM + 10% dialyzed FBS; 48 h; 0.00234 µM
Give bare numbers, in %.

molecule=O=C(O)c1ccc(-n2nc(-c3ccccc3O)nc2-c2ccccc2O)cc1 target="SEM cells" measuredquantity="cell viability" displayunit=% testresult=93
molecule="CC(C)C[C@H](NC(=O)CNC(=O)c1cc(Cl)ccc1Cl)B1OC(=O)CC(CC(=O)O)(C(=O)O)O1 (some centres undefined)" target="SEM cells" measuredquantity="cell viability" displayunit=% testresult=120
molecule=CCN(CC)CCCCNc1nc2cc(Cl)c(Cl)cc2nc1-c1ccc(-c2cccs2)s1 target="SEM cells" measuredquantity="cell viability" displayunit=% testresult=110
molecule=O=C(Nc1cccc(Nc2ncc(Br)c(NCCc3cnc[nH]3)n2)c1)N1CCCC1 target="SEM cells" measuredquantity="cell viability" displayunit=% testresult=78.4
molecule=CC(C)n1nc(-c2ccc3oc(N)nc3c2)c2c(N)ncnc21 target="SEM cells" measuredquantity="cell viability" displayunit=% testresult=73.7

Below are 4 molecules. Give each one its cell viability.
1. CC1(C)C(=O)N(CCN2CCC(C(=O)c3ccc(F)cc3)CC2)c2ccccc21
2. Cc1c(Cn2c(C)nc3c(C(=O)O)cc(N4CCOCC4)cc32)cccc1C(F)(F)F
3. C[S+](=O)([O-])N(Cc1ccco1)CC(O)Cn1c2ccccc2c2ccccc21 (centres undefined)
4. CC(C)Nc1cc(C(F)(F)F)cc2nc(NC(=O)c3cccnc3)nn12

[111, 101, 88.5, 105]

###

System: SEM cells
Assay: cell viability relative to DMSO control; higher = less cytotoxic
Settings: RPMI 5 mM glucose + 10% dialyzed FBS; 48 h; 1.71 µM
Assign cell viability to each entry below.
Numbers only, in %.

Here is how some molecules turned out for cell viability.
molecule=CCN(CC)CCCCNc1nc2cc(Cl)c(Cl)cc2nc1-c1ccc(-c2cccs2)s1 measuredquantity="cell viability" testresult=116
molecule=O=C(CO)N1CCC(c2n[nH]c(-c3ccc(Cl)cc3)c2-c2ccncn2)CC1 measuredquantity="cell viability" testresult=100
molecule=CN1\C(=C(\O)C2=C(C=CS2)[S+]1([O-])=O)C(=O)NC3=CC=CC=N3 measuredquantity="cell viability" testresult=112
molecule=CC(C)Nc1cc(C(F)(F)F)cc2nc(NC(=O)c3cccnc3)nn12 measuredquantity="cell viability" testresult=23.2
molecule=CCc1c(C(=O)C(N)=O)c2c(OCC(=O)O)cccc2n1Cc1ccccc1 measuredquantity="cell viability" testresult=92.7
molecule=O=C(NC[C@H](O)CN1CCc2ccccc2C1)c1cc(NC2COC2)ncn1 measuredquantity="cell viability" testresult=75.2
molecule=CCCCNc1cc(C(=O)O)cc([S+](N)(=O)[O-])c1Oc1ccccc1 measuredquantity="cell viability" testresult=123
molecule=Clc1cc(Cl)cc(CNc2ncncc2-c2ccc3c(c2)OCO3)c1 measuredquantity="cell viability" testresult=100

Below are 6 molecules. Give each one its cell viability.
1. [NH2][Pt]([NH2])([Cl])[Cl]
2. Oc1ccc(C2CCN(c3ccnc4ccccc34)CC2)cc1O
3. OC[C@H]1O[C@H]([C@@H](F)[C@@H]1O)N2\C=C/C(=O)NC2=O
4. COc1cc(Nc2ncc(F)c(Nc3ccc4c(n3)NC(=O)C(C)(C)O4)n2)cc(OC)c1OC
5. NC1=NC=C(C=C1)C2=CC=C3N=CC\4=C(N(C(=O)\C=C4)C5=CC(=CC=C5)C(F)(F)F)C3=C2
6. O=C(/C=C/c1cccc([S+](=O)([O-])Nc2ccccc2)c1)NO

1: 74.3; 2: 96.2; 3: 90.7; 4: 49.4; 5: 22.5; 6: 20.9

###

System: P12-Ichikawa
Test: cell viability relative to DMSO control; higher = less cytotoxic
Details: HPLM + 10% dialyzed FBS; 48 h; 46.1 µM
measuredQuantity: cell viability (%)
Give bare numbers, in %.

Here is how some compounds turned out for cell viability.
compound=CC1(C)CCC(=C(CN2CCN(CC2)C3=CC=C(C=C3)C(=O)N[S+]([O-])(=O)C4=CC(=C(N[C@H](CCN5CCOCC5)CSC6=CC=CC=C6)C=C4)[S+]([O-])(=O)C(F)(F)F)\C1)/C7=CC=C(Cl)C=C7 testresult=4.74
compound=NC1=NC=C(C=C1)C2=CC=C3N=CC\4=C(N(C(=O)\C=C4)C5=CC(=CC=C5)C(F)(F)F)C3=C2 testresult=15.7
compound=CC(C)Nc1cc(C(F)(F)F)cc2nc(NC(=O)c3cccnc3)nn12 testresult=33.5
compound=C[N+]1(C)[C@@H]2C[C@@H](OC(=O)[C@H](CO)c3ccccc3)C[C@H]1[C@@H]1O[C@@H]12.[Br-] testresult=102
compound=Cn1cc(-c2ccc3nnc(C(F)(F)c4ccc5ncccc5c4)n3n2)cn1 testresult=82.9
compound=CC1(C)C(=O)N(CCN2CCC(C(=O)c3ccc(F)cc3)CC2)c2ccccc21 testresult=113

Below are 5 compounds. Give each one its cell viability.
1. Cc1ncc(OC[C@@]2(c3cccc(F)c3)C[C@H]2C(=O)Nc2ccc(F)cn2)c(C)n1
2. CC(C)[C@@H](C[S+](=O)([O-])C(C)C)N1C(=O)[C@@](C)(CC(=O)O)C[C@H](c2cccc(Cl)c2)[C@H]1c1ccc(Cl)cc1
3. C\C1=C\N([C@H]2C[C@H](N=[N+]=[N-])[C@@H](CO)O2)C(=O)NC1=O
4. COc1cc2c(Oc3ccc(NC(=O)C4(C(=O)Nc5ccc(F)cc5)CC4)cc3F)ccnc2cc1OCCCN1CCOCC1
5. CCN(CC)CCCCNc1nc2cc(Cl)c(Cl)cc2nc1-c1ccc(-c2cccs2)s1

[13.4, 15.6, 15.1, 5.1, 59.9]

Below are 5 compounds. Give each one its cell viability.
1. COc1cc(C(C)=O)ccc1OCCCN1CCC(c2noc3cc(F)ccc23)CC1
2. Cc1nccn1CC1CCc2c(c3ccccc3n2C)C1=O (stereo unspecified)
3. CC\1=C(C(=O)N(\C=C1)C2=CC=C(C=C2)C3=NC=CO3)/C4=CC5=CN=C(N)N=C5C=C4
4. COc1cc2c(Nc3ccc(Cl)c(Cl)c3F)ncnc2cc1OC[C@@H]1C[C@@H]2CN(C)C[C@@H]2C1
5. CC(C)C[C@H](NC(=O)[C@@H](NC(=O)c1cccc(-c2ccccc2)n1)[C@@H](C)O)B(O)O

120
108
91.3
10.1
1.32

Reference for the values: the supplement of paper PMC11451515
